# System: Rhinovirus type 1 B (R 1112 strain)
# Assay info: Inhibition of cytopathogenic effect of rhinovirus type 1 B in human fibroblast cultures
# Format: cell-based, human rhinovirus type 1 B
# Conditions used: Enterovirus, human fibroblasts, 37° C., 3-4 days, prevention of cytopathogenic effect, read-out: Minimum inhibitory concentration, Rhinovirus type 1 B
# Procedure: The type 1 A (R 2060 strain) and type 1 B (R 1112 strain) human rhinoviruses have the property of forming foci of necrosis (cytopathogeniceffect) on single-layer cell cultures. The compounds of the formula (I), which prevent the formation of these foci, have been selected as active substances. Decreasing concentrations of the same solution or suspension of the compound under test are added to fresh identical cell cultures, the highest concentration being the maximum non-cytotoxic concentration. […]

{"columns": ["Compound structure", "MIC"],
 "data": [
  ["Fc1ncccc1N=C1SC[C@@H]2Cc3ccccc3CN12", "0.016 µg/mL"],
  ["c1cncc(N=C2SC[C@@H]3Cc4ccccc4CN23)c1", "0.15 µg/mL"],
  ["COc1ncccc1N=C1SC[C@@H]2Cc3ccccc3CN12", "1.5 µg/mL"],
  ["Clc1ncccc1N=C1SC[C@@H]2Cc3ccccc3CN12", "0.016 µg/mL"],
  ["Cc1cc2c(N=C3SC[C@@H]4Cc5ccccc5CN34)cccc2cn1", "1.5 µg/mL"],
  ["c1ccc2c(c1)C[C@H]1CSC(=Nc3cccc4cnccc34)N1C2", "0.7 µg/mL"]
]}

Recorded values, source patent US4269842A.
